Recorded z-score by entry
Experiment: P. aeruginosa biofilm formation inhibitors, primary screen, PAO1 strain, BacTiter-Glo luminescence, LB-PBS (AID 1144)
Conditions: 12 h, higher = more signal
No unit in the answer, please; the number alone is enough.

Solved entries:
molecule	z-score
COC(=O)[C@@]1(Cc2ccc(F)cc2)[C@H]2c3cc(C(=O)N(C)C)n(CCN4CCOCC4)c3C[C@H]2CN1C(=O)c1ccccc1	0.263
O=C1OCCC/C=C\[C@H]2OC34C=CCN(Cc5ccccc5)C(=O)[C@H]3N(CCCCCO)C(=O)[C@@H]4C12 (some centres undefined)	1.2
Cc1ccc(S(=O)(=O)N2[C@@H](c3ccccc3)C(C(=O)O)=CC[C@H]2c2ccc(C#N)cc2)cc1	-0.236

API: the following record is the query input.
Input: For CC(C)[Si](C#CCCCC#N)(O[C@H](c1ccccc1)c1cn([C@H](C)c2ccccc2)nn1)C(C)C , what is its reported z-score?
Output: -0.0514
